Tested on: HIV-1LAI envelope gp120 (Human immunodeficiency virus type 1 group M subtype B, UniProt P03377)
Format: binding
Condition parameters: Panel E, 9-mers and 12-mers of CD4; empty control 571
The entries below are paired with their reported COUNTS of radiolabeled gp120 retained.
Measurement name: COUNTS of radiolabeled gp120 retained (counts)

Macromolecule sequence | Reported result
LTGSGELWW | 550
QKASSIVYKKEG | 596
IDIVVLAFQKAS | 630
IVVLAFQKA | 602
VLQNQKKVEFKI | 503
QKKVEFKID | 575
VVLAFQKAS | 600
VLQNQKKVE | 556
VLAFQKASS | 466
VLAFQKASSIVY | 548

* * *

Tested on: HIV-1LAI envelope gp120 (Human immunodeficiency virus type 1 group M subtype B, UniProt P03377)
Type: binding
Condition parameters: STRL33 18-mer scan; background subtracted; second of two count columns
Hi! Could you tag entries with radioactive counts recorded in twenty minutes below 1000 counts as true, and those at or above as false? Much appreciated.

Macromolecule sequence | Cat
VCTLPFWAYAGIHEWVFG [STRL33 segment 81-98] | false
EAISTVVLATQMTLGFFL [STRL33 segment 185-202] | false
HEWVFGQVMCKSLLGIYT [STRL33 segment 93-110] | false
DIGCLPYLGVSHQWKSSE | true
IFLVMAVFLLTQMPFNLM [STRL33 segment 233-250] | true

* * *

Tested on: HIV-1LAI envelope gp120 (Human immunodeficiency virus type 1 group M subtype B, UniProt P03377)
Format: binding
Condition parameters: STRL33 amino terminus; 12-mer starting at the first residue of the printed sequence; background subtracted
Measurement name: Binding Results For Window Length (counts bound-background), 12 (counts)

Macromolecule sequence | Reported result
HDYHEDYGFSSFNDSSQE | 1427
HEDYGFSSFNDSSQEEHQ | 1077
DYHEDYGFSSFNDSSQEE [STRL33 segment 5-22] | 1554
EDYGFSSFNDSSQEEHQA | 817
YHEDYGFSSFNDSSQEEH | 1950

* * *

The entries below are paired with their reported Binding Results For Window Length (counts bound-background), 12.
Tested on: HIV-1LAI envelope gp120 (Human immunodeficiency virus type 1 group M subtype B, UniProt P03377)
Format: binding
Condition parameters: STRL33 amino terminus; 12-mer starting at the first residue of the printed sequence; background subtracted
Measurement name: Binding Results For Window Length (counts bound-background), 12 (counts)

Macromolecule sequence | Result units | Reported result
MAEHDYHEDYGFSSFNDS [STRL33 segment 1-18] | counts | 625
SQEEHQAFLQFS | counts | 7512
DYGFSSFNDSSQEEHQAF [STRL33 segment 9-26] | counts | 573
EHDYHEDYGFSSFNDSSQ | counts | 937
YGFSSFNDSSQEEHQAFL | counts | 745
EEHQAFLQFSKV | counts | 5598
SSQEEEQAFLQFSKV | counts | 4455
DSSQEEHQAFLQFSK | counts | 882
FNDSSQEEEQAFLQFSKV | counts | 470
AEHDYHEDYGFSSFNDSS | counts | 697
NDSSQEEHQAFLQFS | counts | 497
FSSFNDSSQEEHQAFLQF | counts | 403
SFWDSSQEEEQAFLQFSK | counts | 303
SSFNDSSQEEHQAFLQFS [STRL33 segment 13-30] | counts | 277
GFSSFNDSSQEEEQAFLQ | counts | 480
QEEHQAFLQFSK | counts | 5672

Attribution: patent US20030068615A1
